FYI, the data here is from PubChem BioAssay.

- Assay Explanation: RPMI8226 myeloma cell viability, profiling panel, resazurin fluorescence, basal, 24 h, PK04 Diversity Set (AID 1180);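 note: RPMI8826 multiple myeloma cell line at 5000 cells per well; test concentration not given here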
- Condition: higher = more signal
Assay Metric: z-score
Numbers only.

Examples with their reported z-score follow.
COc1ccc(O[C@H]2C=C[C@@H](c3ccccc3)O[C@@H]2CON=C[C@@H](C)[C@H](OCc2ccccc2)C(C)C)cc1: -0.854
C=CC[C@@H]1C=C[C@H](ON=C(C)CCN2CCc3nc(CC)c(CC)cc3C2)[C@@H](CO)O1: -0.639
C[C@@H]1CCC2C(=O)N(Cc3ccccc3)C[C@@H](O)CN2[C@H]1c1ccc(Br)cc1 (some centres undefined): 0.39

Query string: Please give the measured z-score for this molecule: C[C@@H](c1ccccc1)N1C(=O)[C@H]2[C@H]3[C@H](O)[C@H](O)CC(=NNC(=O)OCc4ccccc4)[C@H]3CC[C@H]2C1=O
Result string: 0.368

====

- Tested On: Neurogenic locus notch homolog protein 3 (Homo sapiens) (UniProt Q9UM47)
- Sequence (Q9UM47 whole entry, looked up): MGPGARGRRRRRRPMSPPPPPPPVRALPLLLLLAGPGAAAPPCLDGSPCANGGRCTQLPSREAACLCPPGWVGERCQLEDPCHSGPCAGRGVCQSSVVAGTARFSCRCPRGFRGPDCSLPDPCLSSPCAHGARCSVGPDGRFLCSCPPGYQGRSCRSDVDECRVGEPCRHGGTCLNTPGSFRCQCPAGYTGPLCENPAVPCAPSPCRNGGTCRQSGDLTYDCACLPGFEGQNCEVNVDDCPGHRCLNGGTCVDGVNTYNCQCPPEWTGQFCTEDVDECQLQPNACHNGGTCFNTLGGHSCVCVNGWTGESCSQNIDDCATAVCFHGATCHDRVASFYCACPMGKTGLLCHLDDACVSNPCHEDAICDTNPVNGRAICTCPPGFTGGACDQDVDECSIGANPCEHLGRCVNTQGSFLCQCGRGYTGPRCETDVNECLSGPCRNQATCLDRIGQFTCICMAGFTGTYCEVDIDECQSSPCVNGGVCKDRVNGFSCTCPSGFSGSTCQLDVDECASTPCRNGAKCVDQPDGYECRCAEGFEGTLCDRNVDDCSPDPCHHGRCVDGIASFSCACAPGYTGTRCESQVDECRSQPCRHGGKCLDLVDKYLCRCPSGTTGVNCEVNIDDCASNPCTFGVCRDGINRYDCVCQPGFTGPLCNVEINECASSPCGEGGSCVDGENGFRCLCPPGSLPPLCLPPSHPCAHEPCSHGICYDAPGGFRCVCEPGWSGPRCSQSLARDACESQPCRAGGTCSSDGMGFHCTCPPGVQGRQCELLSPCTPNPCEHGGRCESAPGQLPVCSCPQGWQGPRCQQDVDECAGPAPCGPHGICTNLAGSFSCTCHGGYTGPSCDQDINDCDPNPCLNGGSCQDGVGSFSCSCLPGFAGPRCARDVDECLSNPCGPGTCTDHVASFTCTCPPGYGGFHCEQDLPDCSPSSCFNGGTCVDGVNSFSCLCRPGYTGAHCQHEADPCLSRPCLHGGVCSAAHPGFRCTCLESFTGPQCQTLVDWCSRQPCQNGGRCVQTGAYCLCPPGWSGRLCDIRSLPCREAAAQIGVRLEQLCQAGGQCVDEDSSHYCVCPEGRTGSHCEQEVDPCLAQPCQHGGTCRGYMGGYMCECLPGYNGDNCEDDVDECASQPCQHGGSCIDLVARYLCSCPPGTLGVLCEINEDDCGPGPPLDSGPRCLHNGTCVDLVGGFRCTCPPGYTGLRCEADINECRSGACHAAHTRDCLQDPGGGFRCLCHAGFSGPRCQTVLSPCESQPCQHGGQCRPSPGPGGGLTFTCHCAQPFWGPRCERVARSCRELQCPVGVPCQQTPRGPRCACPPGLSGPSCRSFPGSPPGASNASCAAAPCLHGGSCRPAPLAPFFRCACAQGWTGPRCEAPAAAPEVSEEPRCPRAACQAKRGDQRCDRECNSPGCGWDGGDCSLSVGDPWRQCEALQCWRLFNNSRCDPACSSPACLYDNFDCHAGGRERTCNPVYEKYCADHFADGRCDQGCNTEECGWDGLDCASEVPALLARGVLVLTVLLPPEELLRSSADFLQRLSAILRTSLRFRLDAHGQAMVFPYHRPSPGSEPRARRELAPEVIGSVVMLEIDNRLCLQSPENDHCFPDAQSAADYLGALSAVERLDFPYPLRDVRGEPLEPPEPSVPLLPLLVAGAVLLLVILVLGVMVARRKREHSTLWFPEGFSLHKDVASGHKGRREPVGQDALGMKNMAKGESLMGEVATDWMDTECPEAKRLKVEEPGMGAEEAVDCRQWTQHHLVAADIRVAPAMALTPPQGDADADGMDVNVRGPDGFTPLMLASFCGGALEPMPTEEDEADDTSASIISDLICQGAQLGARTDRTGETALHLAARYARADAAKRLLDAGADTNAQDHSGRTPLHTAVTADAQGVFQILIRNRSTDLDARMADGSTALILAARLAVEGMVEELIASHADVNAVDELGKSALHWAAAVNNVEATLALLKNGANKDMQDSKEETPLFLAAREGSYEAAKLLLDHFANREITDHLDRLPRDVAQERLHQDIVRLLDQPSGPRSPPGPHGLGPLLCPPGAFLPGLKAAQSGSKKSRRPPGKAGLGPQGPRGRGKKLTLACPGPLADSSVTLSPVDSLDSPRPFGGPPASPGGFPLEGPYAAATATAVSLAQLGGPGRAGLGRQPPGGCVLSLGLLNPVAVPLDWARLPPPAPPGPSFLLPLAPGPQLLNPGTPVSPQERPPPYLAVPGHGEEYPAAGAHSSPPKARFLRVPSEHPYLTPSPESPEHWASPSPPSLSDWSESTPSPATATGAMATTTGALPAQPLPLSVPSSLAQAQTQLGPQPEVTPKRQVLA
- Assay Explanation: NOTCH3 binders on small-molecule microarray, primary screen, biochemical, 635/667 nm fluorescence (AID 1096)
- Condition: NOTCH3 binding, 635 nm fluorescence, higher = more signal
Assay Metric: composite z-score
Numbers only.

CC(C)NC(=O)[C@@]1(c2ccc([N+](=O)[O-])cc2)CC(=O)N(CC23CC4CC(CC(C4)C2)C3)[C@@H]1c1ccc(CO)cc1I: 0.341
CCCCCN1CC=CC23O[C@@H]4C=CCOC(=O)[C@@H]4[C@H]2C(=O)N(CCCCCCO)[C@@H]3C1=O (stereo not given in full): -0.973
CCOC(=O)CCN1C(=O)[C@H]2[C@H]3[C@H](O)[C@H](O)CC(=NOC[C@@H](O)COCc4ccco4)[C@@H]3CC[C@H]2C1=O: -0.62
CC1(C)OCC(C(O)C2=CCCCC2=O)CO1 (stereo not given): 1.06
COC(=O)CC=C[C@H](C)[C@H](CO)NS(=O)(=O)c1ccc(C)cc1: 0.506
CCOC(=O)C1=CCC(c2cc3ccccc3[nH]2)NC1 (stereo not given): 0.335

Would you mind giving composite z-score for every compound in the list below?
1. CO[C@H]([C@@H](C)[C@H](OC)c1ccccc1)[C@H](C)[C@@H](OC)[C@H](C)C(C)=O
2. CC(CCC(=O)OC[C@H]1O[C@H](C#Cc2ccccc2)C=C[C@@H]1Oc1ccc(C)cc1)=NOC[C@@H](O)[C@H]1O[C@@H]2OC(C)(C)O[C@@H]2[C@H]1O

Result string:
[-0.177, -1.74]

====

Can you tell me composite z-score for the items I'm about to list?
- Test system: Human papillomavirus type 1a E7 protein (residues 1-88)
- Assay Explanation: HPV1a E7 small-molecule binders, primary screen, biochemical, small-molecule microarray, residues 1-88, 635 nm (AID 1129)
- Condition: small-molecule microarray binding, fluorescence 635 nm; higher = more signal
One number for each entry.

CCN1C(=O)[C@H]2[C@H]3[C@H](O)[C@H](O)CC(=NOCC=C(C)CCC=C(C)C)[C@H]3CC[C@H]2C1=O: 1.1
O=C1C2=CC[C@H]3C(=O)N(Cc4ccc5c(c4)OCO5)C(=O)[C@H]3[C@H]2[C@H](O)[C@@H]2O[C@H]12: 0.383
O=C1C[C@@H](O)[C@@H](O)[C@@H]2[C@@H]3C(=O)N(C4CCCCC4)C(=O)[C@@H]3CC[C@H]12: 0.949
CC1CC/C=C\[C@H]2OC34C=CCN(C(C)C)C(=O)[C@H]3N(CCCO)C(=O)[C@@H]4C2C(=O)O1 (some centres not stated): -0.883
COc1ccc(O[C@H]2C=C[C@@H](c3ccccc3)O[C@@H]2COC(=O)CCC(C)=NOC(C)CN2CCCCc3nc(C)c(C)cc32)cc1 (some centres not stated): -0.303
COC(=O)[C@@]1(Cc2ccccc2)[C@H]2c3cc(C(=O)N4CCCC4)n(Cc4ccccn4)c3C[C@H]2CN1C(=O)c1ccccc1: 1.26

Now turn to the next compound.
Query string: Please give the measured composite z-score for this compound: CC(C)[C@@H](OCc1ccccc1)[C@H](C)C=NOC[C@@H](C)[C@H](OCc1ccccc1)C(C)C
Result string: 0.289
